target-under-test: MAST2, Q6P0Q8
Sequence (Q6P0Q8 1099-1202): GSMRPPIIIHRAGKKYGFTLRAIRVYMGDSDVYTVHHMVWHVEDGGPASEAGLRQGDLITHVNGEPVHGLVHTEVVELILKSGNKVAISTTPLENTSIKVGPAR
measurement-protocol: holdup assay
Design: key: below the threshold = too weak to quantify, mostly under pKd 3.1 to 4
condition-parameters: plain residues with an end cap or a label only (N-terminal biotin on a linker: ado-ado)
result-type: pKd
Quick one: just the number, no unit, thanks!

Examples with their reported pKd follow.
TLPRKRMSSI [GPRC6A, Q5T6X5]; 4.82
TASPAKETSF [SLC2A7, Q6PXP3]; 5.21
SAAKVLTSMC [GHRHR, Q02643]; 4.15
GSGAVEMESV [AQP6, Q13520]; 4.03
EVEEFPETSV [TRPV3, Q8NET8]; 5.5

// query // pKd lookup, key: IKAIVDLTGL [TRAF2, Q12933]
// result 5.48

// query // pKd lookup, key: YLEPVLSSEL [ATP2A2, P16615;P16615-3]
// result 5.81
